system tested: cynomolgus PAI-1 (cynomolgus, UniProt P05121 24-402 (human entry), limits assumed)
assay protocol: cell-based or functional assay
Mark Met only for IC50 chromogenic values smaller than 0.8 nM; exact matches and larger values are Not met.

binder	label value
Antibody 12, scFv (scFv, V domains shown) VH: QVQLQQSGAEVKKPGSSVKVSCKASGGTFSSYAISWVRQAPGQGLEWMGGIIPTFPTANYAQKFQGRVTITADESTSTAYMELSGLRSEDTAVYYCAREKRQWLEGHFDYWGRGTPVTVSS VL: DIQMTQSPSFLSASIGDRVTITCRASEGIYHNLAWYQQKPGKAPKLLIYRASSLASGAPSRFSGSGSGTDFTLTISSLQPDDFATYYCQQYSNYPLTFGGGTKLEIK	Met
Antibody 02, scFv (scFv, V domains shown) VH: QVQLVQSGAEVKKPGSSVKVSCKASGGTFSSYAISWVRQAPGQGLEWMGGIIPTFGTANYAQKFQGRVTITADESTSTAYMELSSLRSEDTAVYYCAREKRQWLEGHFDYWGRGTLVTVSS VL: DIQMTQSPSTLSASVGDRVTITCRASEGIYHSLAWYQQKPGKAPKLLIYKASSLASGVPSRFSGSGSGTEFTLTISSLQPDDFATYYCQQYSDYPLTFGGGTKVEIK	Not met
Antibody 23, scFv (scFv, V domains shown) VH: QVQLQQSGAEVKKPGSSVKVSCKASGGTFSSYAISWVRQAPGQGLEWMGGIIPTFGTANYAQKFQSRVTITADESTSTAYMELSGLRSEDTAVYYCAREKRQWLEGHFDYWGRGTPVTVSS VL: DIQMTQSPSFLSASIGDRVTITCRASEGIYHSLAWYQQKPGKAPKLLIYRASSLASGAPSRFSGSGSGTDFTLTISSLQPDDFATYYCQQYSNYPLTFGGGTKLEIK	Met
Antibody 25, scFv (scFv, V domains shown) VH: QVQLQQSGAEVKKPGSSVKVSCKASGGTFSSYAISWVRQAPGQGLEWMGGIIPTFGTANYAQKFQGRVTITADESTSTAYMELSGLRSEDTAVYYCARERRQWLEGHFDYWGQGTPVTVSS VL: DIQMTQSPSFLSASIGDRVTITCRASESIYHELAWYQQKPGKAPKLLIYKASSLASGAPSRFSGSGSGTAFTLTISSLQPDDFATYYCQQYSNYPLTFGGGTKLEIK	Not met
Antibody 13, scFv (scFv, V domains shown) VH: QVQLQQSGAEVKKPGSSVKVSCKASGGTFSSYAISWVRQAPGQGLEWMGGIIPTFGTANYAQKFQGRVTITADESTSTAYMELSDLRSEDTAVYYCAREKRQWLEGHFDYWGRGTPVTVSS VL: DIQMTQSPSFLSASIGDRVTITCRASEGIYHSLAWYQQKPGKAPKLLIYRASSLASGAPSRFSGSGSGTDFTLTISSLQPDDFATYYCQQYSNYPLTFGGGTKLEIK	Not met
Antibody 09, scFv (scFv, V domains shown) VH: QVQLQQSGAEVKKPGSSVKVSCKASGGTFSSYAISWVRQAPGQGLEWMGGIIPAFDTANYAQKFQGRVTITADESTSTAYMELSGLRSEDTAVYYCAREKRQWLEGHFDYWGRGTPVTVSS VL: DIQMTQSPSFLSASIGDRVTITCQASEGIYHNLAWYQQKPGKAPKLLIYRASSLASGAPSRFSGSGSGTDFTLTISSLQPDDFATYYCQQYSNYPLTFGGGTKLEIK	Met
Antibody 07, scFv (scFv, V domains shown) VH: QVQLQQSGAEVKKPGSSVKVSCKASGGTFSSYAISWVRQAPGQGLEWVGGIIPTFGTANYAQKFQGRVTITADESTSTAYMELSGLRSEDTAVYYCAREKRQWLEGHFDYWGRGTPVTVSS VL: DIQMAQSPSFLSASIGDRVTITCRASEGIYHELAWYQQKPGKAPKLLIYRASSLASGAPSRFSGSGSGTDFTLTISSLQPDDFATYYCQQYSNYPLTFGGGTKLEIK	Not met
Antibody 03, scFv (scFv, V domains shown) VH: QVQLQQSGAEVKKPGSSVKVSCKASGGTFSSYAISWVRQAPGQGLEWMGGIIPTFGTANYAQKFQGRVTITADESTSTAYMELSGLRSEDTAVYYCAREKRQWLEGHFDYWGRGTPVTVSS VL: DIQMTQSPSFLSASIGDRVTITCRASEGIYRSLAWYQQKPGKAPKLLIYKASSLASGAPSRFSGSGSGTDFTLTISGLQPDDFATYYCQQYSNYPLTFGGGTKLEIK	Met
Antibody 22, scFv (scFv, V domains shown) VH: QVQLQQSGAEVKKPGSSVKVSCKASGGTFSGYAISWVRQAPGQGLEWMGGIIPTFGTANYSQKFQGRVTITADESTSTAYMELSGLRSEDTAVYYCAREKRQWLEGHFDYWGRGTPVTVSS VL: DIQMTQSLSFLSASIGDRVTITCRASEGIYHALAWYQQKPGKAPKLLIYRASSLASGAPSRFSGSGSGTDFTLTISSLQPDDFATYYCQQYSNYPLTFGGGTKLEIK	Not met
